Target: Metallo-beta-lactamase type 2 (Bacteria, UniProt C7C422)
Sequence (C7C422 whole entry): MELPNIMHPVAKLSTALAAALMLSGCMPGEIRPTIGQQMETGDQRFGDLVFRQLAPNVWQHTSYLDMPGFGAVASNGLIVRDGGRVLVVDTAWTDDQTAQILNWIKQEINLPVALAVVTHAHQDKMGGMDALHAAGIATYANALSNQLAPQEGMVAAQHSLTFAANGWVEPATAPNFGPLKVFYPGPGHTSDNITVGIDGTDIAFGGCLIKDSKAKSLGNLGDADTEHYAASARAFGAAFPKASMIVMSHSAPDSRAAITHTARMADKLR
Experiment: Inhibition of NDM-1 (unknown origin)
quantity-name: IC50 (nM)
Report only the number, with the unit nM understood.

Please review the entries below; each comes with its answer.
CC(C)(C)OC(=O)NCCCCCCn1[se]c2ccccc2c1=O :: 1260
O=c1c2ccccc2[se]n1-c1ncccc1-c1ccc(F)cc1 :: 11300
O=C(Cc1ccccc1)N[C@H]1C(=O)N2C(C(=O)O)=C(C[S+]([O-])CCC(=O)Oc3c(F)c(F)c(F)c(F)c3F)C[S+]([O-])[C@@H]12 (some centres undefined) :: 390

Could you now look at the following compound, please?
Which IC50 value belongs to `CCOC(=O)[C@]1(CS)C[C@H](C(=O)O)C(C)(C)S1` ? 40
